Data provenance is PubChem BioAssay (NCI).

// values below are reported growth inhibition
test: NCI Yeast Anticancer Drug Screen. Data for the rad50 strain (AID 155);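 note: 0% = growth of vehicle-only cultures of the same strain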; conditions: S. cerevisiae rad50 strain growth inhibition, active compounds read high; at 50.0 µM unless noted
Compounds without any hit were thinned out: in the full panel of roughly 79,000, 15% have a hit.
Express your answer in %, writing the number without its unit.

Reference set (6 entries):
# compound, observed property, observed value
rows = [
    ("CCC(C)(C)c1ccc(C(=O)OC)o1", "growth inhibition", 4.1),
    ("COc1ccc(C(N2CCNCC2)N2CCNCC2)cc1", "growth inhibition", 13.7),
    ("C=CC(=O)Nc1ccccc1", "growth inhibition", 16.4),
    ("CCOC(OCC)c1ccc(OC)c(OC)c1", "growth inhibition", 13.5),
    ("COc1cc(C)cc(C(=O)O)c1", "growth inhibition", -1.85),
    ("CC1CCCN2C(=O)CN(c3ccccc3)CC(=O)N12 (configuration not stated)", "growth inhibition", 13.6),
]

Shifting focus to the compound that follows.
Consider the compound O=C(O)Cc1ccc(-c2cn3c(n2)sc2ccccc23)cc1 and give its measured growth inhibition.
58.1

###

test: NCI Yeast Anticancer Drug Screen. Data for the cln2 rad14 strain (AID 165);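 note: 0% = growth equal to vehicle treated cultures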; details: S. cerevisiae cln2 rad14 strain, active compounds read high; at 50.0 µM unless noted
The panel holds about 79,000 compounds, 15% with a hit somewhere; the sample as a whole holds those more often.
// values below are reported growth inhibition
Express your answer in %, writing the number without its unit.

Reference set (4 entries):
# molecule, observed property, observed value
rows = [
    ("c1ccc(-n2ncnn2)cc1", "growth inhibition", -41.1),
    ("CC(=O)c1cc2c(cc1O)oc1c(C)ccc(C)c12", "growth inhibition", 18.2),
    ("CCOCc1cccc2ccccc12", "growth inhibition", 9),
    ("CCC12CCCNC1c1c(n(C)c3ccccc13)C(C(=O)OC)C2 (configuration not stated)", "growth inhibition", 25.6),
]

Consider the molecule COC1CCC(/C=C(\C#N)C2CCC(C)CC2)CC1 (configuration not stated) and give its measured growth inhibition.
12.1

Try this molecule next: COc1ccccc1/C=C1\SC(=S)NC1=O
-14.6

Try this molecule next: CCCCC1=C(c2ccccc2)/C(=N/Nc2ccc([N+](=O)[O-])cc2[N+](=O)[O-])c2ccccc21
-2.85

###

experiment: NCI Yeast Anticancer Drug Screen. Data for the sgs1 mgt1 strain (AID 161);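 note: 0% = growth of cultures given vehicle only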; conditions: S. cerevisiae sgs1 mgt1 strain, active compounds read high; at 50.0 µM unless noted
This is part of a sample that, as a whole, favours compounds with a hit. Of some 79,000 tested, about 15% had one in any assay.
observed property: growth inhibition (%)
Express your answer in %, writing the number without its unit.

Reference set (5 entries):
# molecule, observed property, unit name, observed value
data = [
    ("O=C(Cc1ccccc1)N/N=C(/c1nc2ccc([N+](=O)[O-])cc2[nH]c1=O)C(O)c1ccccc1Cl (stereo not drawn)", "growth inhibition", "%", 6.8),
    ("COc1cc2c(cc1OC)C(c1c(-c3c(Cl)cccc3Cl)noc1C)=NCC2", "growth inhibition", "%", -11.8),
    ("CCc1ccc(NS(=O)(=O)c2ccccc2[N+](=O)[O-])cc1", "growth inhibition", "%", 61.8),
    ("C=CCCC(=O)CC(=O)OCc1ccccc1", "growth inhibition", "%", -1.15),
    ("Cc1nn2c(nnn2CCO)c1-c1ccccc1", "growth inhibition", "%", -15),
]

Consider the molecule CCCCCCCCCCCC(O)C(C)(C)C (stereo not drawn) and give its measured growth inhibition.
-12.6

Try this molecule next: O=C1C(CN2CCCC2)CCCC1CN1CCCC1 (stereo not drawn)
-40.1

Try this molecule next: CC(=O)OCCOc1ccc2c(c1)OCO2
4.95

Try this molecule next: NCCCOB(OCCCN)OCCCN
-17.1

Try this molecule next: CC(=O)Sc1ccc2c(c1)-c1ccccc1C2=O
22.4

Try this molecule next: OC(CCN1CC2CCC(CC2)C1)(Cc1ccccc1)c1cccs1 (stereo not drawn)
21.1

###

assay: NCI Yeast Anticancer Drug Screen. Data for the cln2 rad14 strain (AID 165);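 note: 0% = growth equal to vehicle treated cultures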; settings: S. cerevisiae cln2 rad14 strain, at 50.0 µM (retest, dose inferred, filed as 5.0), active compounds read high
The panel holds about 79,000 compounds, 15% with a hit somewhere; the sample as a whole holds those more often.
// values below are reported growth inhibition
Express your answer in %, writing the number without its unit.

Reference set (6 entries):
# molecule, observed property, unit name, observed value
records = [
    ("C/C(CC(C)C(=O)O)=N/NC(N)=O (stereo not drawn)", "growth inhibition", "%", -2),
    ("O=C(Cc1ccccc1)c1ccc(O)c(Cl)c1", "growth inhibition", "%", 96),
    ("Oc1ccc(Cc2ccccc2Cl)c(O)c1", "growth inhibition", "%", 98),
    ("N#CC(c1ccccc1)c1cccc2ccccc12 (stereo not drawn)", "growth inhibition", "%", -4),
    ("O=C(O)/C=C\\C(=O)Nc1cccc2ccccc12", "growth inhibition", "%", 8),
    ("CCCCCCCCCCNC(=O)CI", "growth inhibition", "%", 42),
]

Consider the molecule NN1CCOC(c2ccccc2)C1 (stereo not drawn) and give its measured growth inhibition.
4

Try this molecule next: CC(O)C(=O)NC1CCCCC1 (stereo not drawn)
3

###

// values below are reported growth inhibition
assay: NCI Yeast Anticancer Drug Screen. Data for the sgs1 mgt1 strain (AID 161);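 note: 0% = growth of cultures given vehicle only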; settings: S. cerevisiae sgs1 mgt1 strain, active compounds read high; at 50.0 µM unless noted
About 79,000 compounds went through this panel and 15% of them were active in at least one assay; those are over-represented in the sample as a whole.
Express your answer in %, writing the number without its unit.

Reference set (5 entries):
# compound, growth inhibition / %
data = [
    ("COc1cccc(N(CN2CC=CC2=O)C(C)=O)c1", 10.6),
    ("O=C(NSN1CCOCC1)c1ccccc1", 30),
    ("CCOC(=O)O/C(=C\\c1ccc(OC)cc1)c1c(OC(=O)OCC)n(C(=O)OCC)c2ccccc12", 7),
    ("CC(=O)OC/C(=C/C#N)C1CCC2C3CC=C4CC(OC(C)=O)CCC4(C)C3CCC12C (stereo unspecified)", -3.75),
    ("CCCCCCCCCCCC(=O)CCCCCCCCCCCC(=O)OC", 17.1),
]

Consider the compound CC(=O)OCC1C2C=CC(C2)C1COC(C)=O (stereo unspecified) and give its measured growth inhibition.
-5.1

Try this compound next: C[C@H]1/C(=C/C(=O)OCCN(C)C)CC[C@H]2[C@H]1C(=O)C[C@H]1C(C)(C)[C@@H](O)CC[C@]21C
-0.55

Try this compound next: N#C/C(=C\c1ccc(Cl)cc1Cl)C(=O)N/N=C/c1ccc(Cl)cc1Cl
27.8

Try this compound next: O=I(=O)c1ccccc1
17.5

Try this compound next: O=[N+]([O-])c1ccc(-n2nnc(C3=NCCCN3)c2-c2ccc(Cl)cc2)cc1
-5.75

Try this compound next: CC1(CO)C2CCC(CC2)C1CO (stereo unspecified)
-4.4

###

experiment: NCI Yeast Anticancer Drug Screen. Data for the bub3 strain (AID 167); conditions: S. cerevisiae bub3 mutant strain, active compounds read high; at 50.0 µM unless noted
Compounds without any hit were thinned out: in the full panel of roughly 79,000, 15% have a hit. Active and inactive are the calls of the source. Rule as the data show it: active = growth inhibition above about 70%; inactive = the rest.
observed property: growth inhibition

Reference set (6 entries):
# molecule, growth inhibition
rows = [
    ("CC(=O)Nc1nnn(C)n1", "9.1% (inactive)"),
    ("CCOC(=O)CN(c1c(C)cc([N+](=O)[O-])c2ccccc12)S(=O)(=O)c1ccccc1", "16.9% (inactive)"),
    ("Brc1ccc(-c2ccccc2)cc1", "8.9% (inactive)"),
    ("OC(CN1CCCC2CCCCC21)c1cc2c(c3ccccc13)CCCC2 (stereo not drawn)", "98.5% (active)"),
    ("O=S(=O)(O)c1ccc(Nc2ccccc2)cc1", "2% (inactive)"),
    ("O/N=C/c1ccc(O)cc1", "2.55% (inactive)"),
]

Consider the molecule O=C(O)/C(=C/c1cccs1)c1ccc(F)cc1 and give its measured growth inhibition.
-3.2% (inactive)

Try this molecule next: C=C1c2nc3ccccc3n2C=C(c2ccccc2)N1c1ccc(OC)cc1
17.5% (inactive)

Try this molecule next: COC(=O)c1cc(NC(=O)Nc2cccc(C(C)=O)c2)cc(C(=O)OC)c1
37.6% (inactive)

Try this molecule next: Cc1ccc(O)c(-c2ccnn2-c2ccccc2)c1
5.25% (inactive)

Try this molecule next: Cc1[nH]nc2c1C(=O)C=C(N(CCO)c1ccccc1)C2=O
-11.9% (inactive)

Try this molecule next: O=C(O)c1cccc(S(=O)(=O)c2ccc([N+](=O)[O-])cc2)c1
-5.7% (inactive)

Try this molecule next: OCCc1ccc2ccccc2n1
-0.8% (inactive)
